Assay: Acute toxicity (mouse)
Conditions: in vivo, ip
Below: a set of entries, each annotated with reported LD50.

>>> observed("Nc1nc(N)nc(-c2cc(Br)ccc2Cl)n1")
"> 1000 mg/kg"

The measured LD50 associated with Nc1nc(N)nc(-c2cc(Cl)ccc2Cl)n1 reads ~1600 mg/kg

Kindly note the recorded LD50 for Nc1nc(N)nc(-c2cc(Br)ccc2Br)n1 , which is ~850 mg/kg

* * *

As shown below, each of these compounds has a reported LD50 value.
Assay: Acute toxicity (mouse)
Settings: in vivo, ip

>>> observed("Nc1nc(N)nc(-c2cc(Cl)ccc2Br)n1")
"~1000 mg/kg"
>>> observed("Nc1nc(N)nc(-c2cc(F)ccc2Br)n1")
"~500 mg/kg"

Then this compound:
Record Nc1nc(N)nc(-c2ccc(Cl)cc2Cl)n1 . Reported LD50: ~300 mg/kg

Source: patent US3966728A
